Where these numbers come from: paper PMC11440508

assay_name: Stability in human plasma/PBS 1:2 v/v
Assay type: in vitro ADME
condition_set: human blood plasma/PBS 1:2 v/v, pH 7.4, 37 °C, 30 min, read-out: % intact compound in plasma
assay_metric: remaining at 0.5 h, 80 μM

1) CCC(=O)NCCCCNC(=O)N=C(N)NCCC[C@H](NC(=O)[C@@H]1CCCN1C(=O)[C@@H](NC(=O)CCc1cn(CCCNC(=O)c2ccc(-c3c4ccc(=[N+](C)C)cc-4oc4cc(N(C)C)ccc34)c(C(=O)[O-])c2)nn1)C1CCNCC1)C(=O)N[C@@H](CCCNC(=N)N)C(=O)N1CCC[C@H]1C(=O)N[C@@H](Cc1ccc(O)cc1)C(=O)N[C@H](C(=O)N[C@@H](CC(C)C)C(=O)O)[C@@H](C)CC: > 99%
